// data source = ChEMBL document CHEMBL6182870

- Study target: Dual specificity protein kinase CLK1 (Mus musculus)
- Protocol details: Inhibition of recombinant mouse CLK1 extracted from bacteria using GRSRSRSRSRSR as substrate assessed as enzyme residual activity at 10 uM incubated for 30 mins in presence of ATP by ADP-Glo kinase assay relative to control
Property label: Activity (%)
// note: answer is a bare numeric in %

See these solved cases before continuing.
c1ccc(-c2c[nH]c3cc4cnccc4cc23)nc1; 10
c1cc2cc3c(cc2cn1)NCC3; 80

# get_value(readout='Activity', item= O=C1CCC(N2C(=O)c3cccc(NCCOCCOCCOCCn4cc(-c5cccnc5)c5cc6ccncc6cc54)c3C2=O)C(=O)N1 (stereo not drawn) ) 79

----------
- Study target: Serine/threonine-protein kinase haspin (Homo sapiens) (UniProt Q8TF76)
- Sequence (Q8TF76 whole entry, the tested form may be a part): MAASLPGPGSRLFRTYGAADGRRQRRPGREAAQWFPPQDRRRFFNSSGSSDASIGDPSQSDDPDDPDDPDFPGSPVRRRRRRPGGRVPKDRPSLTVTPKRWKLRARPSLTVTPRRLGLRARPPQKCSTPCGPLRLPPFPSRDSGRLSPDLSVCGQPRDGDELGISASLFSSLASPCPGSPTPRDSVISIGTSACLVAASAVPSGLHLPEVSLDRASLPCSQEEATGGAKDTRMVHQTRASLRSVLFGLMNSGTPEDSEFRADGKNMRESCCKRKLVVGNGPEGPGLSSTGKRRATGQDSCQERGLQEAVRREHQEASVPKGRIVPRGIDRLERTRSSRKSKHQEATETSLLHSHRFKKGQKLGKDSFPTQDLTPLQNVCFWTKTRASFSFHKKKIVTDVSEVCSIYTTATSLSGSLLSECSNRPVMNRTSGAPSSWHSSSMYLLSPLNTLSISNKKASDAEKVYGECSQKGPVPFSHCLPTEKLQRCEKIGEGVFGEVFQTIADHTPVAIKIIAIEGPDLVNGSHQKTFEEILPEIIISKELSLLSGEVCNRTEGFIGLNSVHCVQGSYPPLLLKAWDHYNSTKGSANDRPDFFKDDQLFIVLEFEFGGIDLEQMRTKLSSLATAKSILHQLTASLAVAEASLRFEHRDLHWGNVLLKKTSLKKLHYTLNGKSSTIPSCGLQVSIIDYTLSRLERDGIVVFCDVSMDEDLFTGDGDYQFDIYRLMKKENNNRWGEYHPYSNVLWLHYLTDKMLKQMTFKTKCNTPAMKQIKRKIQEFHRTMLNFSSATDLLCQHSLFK
- Protocol details: Inhibition of recombinant human haspin kinase domain (470 to 798 residues) extracted from bacteria using histone H3 (1 to 21) peptide as substrate assessed as residual activity at 1 uM incubated for 30 mins in presence of ATP by ADP-Glo kinase assay relative to control
Property label: Activity (%)
// note: answer is a bare numeric in %

O=C1CCC(N2C(=O)c3cccc(NCCOCCOCCOCCn4cc(I)c5cc6ccncc6cc54)c3C2=O)C(=O)N1 (stereo not drawn); 80
c1cc2c(ccc3cc[nH]c32)cn1; 39

Next:
# get_value(readout='Activity', item= O=C1CCC(N2C(=O)c3cccc(NCCOCCOCCOCCn4cc(Cl)c5cc6ccncc6cc54)c3C2=O)C(=O)N1 (stereo not drawn) ) 78

----------
- Study target: Glycogen synthase kinase-3 beta (Homo sapiens) (UniProt P49841)
- Sequence (P49841 whole entry, looked up): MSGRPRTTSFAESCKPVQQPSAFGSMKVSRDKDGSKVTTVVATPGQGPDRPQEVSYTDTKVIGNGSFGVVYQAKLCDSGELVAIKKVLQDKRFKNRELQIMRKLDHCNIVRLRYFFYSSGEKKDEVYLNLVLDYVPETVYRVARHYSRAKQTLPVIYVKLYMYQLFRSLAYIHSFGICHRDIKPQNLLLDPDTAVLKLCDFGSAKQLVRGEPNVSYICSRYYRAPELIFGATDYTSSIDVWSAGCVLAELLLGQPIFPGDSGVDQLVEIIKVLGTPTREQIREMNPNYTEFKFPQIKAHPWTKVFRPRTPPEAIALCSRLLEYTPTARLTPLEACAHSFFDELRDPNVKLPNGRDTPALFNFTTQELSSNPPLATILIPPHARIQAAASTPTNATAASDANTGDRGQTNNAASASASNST
- Protocol details: Inhibition of recombinant human GSK3beta extracted from baculovirus infected Sf9 cells using GS-1 (YRRAAVPPSPSLSRHSSPHQSpEDEEE) peptide as substrate assessed as enzyme residual activity at 1 uM incubated for 30 mins in presence of ATP by ADP-Glo kinase assay relative to control
Property label: Activity (%)
// note: answer is a bare numeric in %

c1cc2cc3c(cc2cn1)NCC3; 78
O=C1CCC(N2C(=O)c3cccc(NCCOCCOCCOCCNC(=O)c4c[nH]c5cc6cnccc6cc45)c3C2=O)C(=O)N1 (stereo not drawn); 82

Next:
# get_value(readout='Activity', item= c1cc2c(ccc3cc[nH]c32)cn1 ) 82

----------
Entries and their Activity values follow.
- Study target: Glycogen synthase kinase-3 beta (Homo sapiens)
- Protocol details: Inhibition of recombinant human GSK3beta extracted from baculovirus infected Sf9 cells using GS-1 (YRRAAVPPSPSLSRHSSPHQSpEDEEE) peptide as substrate assessed as enzyme residual activity at 10 uM incubated for 30 mins in presence of ATP by ADP-Glo kinase assay relative to control
// note: answer is a bare numeric in %

See these solved cases before continuing.
c1cc2cc3c(cc2cn1)NCC3; 80
O=C1CCC(N2C(=O)c3cccc(NCCOCCOCCOCCn4cc(-c5ccncc5)c5cc6ccncc6cc54)c3C2=O)C(=O)N1 (centres undefined); 81
c1ccc(-c2c[nH]c3cc4cnccc4cc23)nc1; 72

Next:
# get_value(readout='Activity', item= O=C1CCC(N2C(=O)c3cccc(NCCOCCOCCOCCn4ccc5cc6ccncc6cc54)c3C2=O)C(=O)N1 (centres undefined) ) 81
